The reported numbers originate from the supplement of paper PMC7877785.

Give measured self-splicing fitness (ln) for each item. Keep answers brief.
# TEST_DESCRIPTION: self-splicing fitness, log relative to wild type (ln ratio); higher = more splicing; Tetrahymena group I intron in knt gene, E. coli kanamycin selection, DiMSum; sequences stand for … in CUCUCU…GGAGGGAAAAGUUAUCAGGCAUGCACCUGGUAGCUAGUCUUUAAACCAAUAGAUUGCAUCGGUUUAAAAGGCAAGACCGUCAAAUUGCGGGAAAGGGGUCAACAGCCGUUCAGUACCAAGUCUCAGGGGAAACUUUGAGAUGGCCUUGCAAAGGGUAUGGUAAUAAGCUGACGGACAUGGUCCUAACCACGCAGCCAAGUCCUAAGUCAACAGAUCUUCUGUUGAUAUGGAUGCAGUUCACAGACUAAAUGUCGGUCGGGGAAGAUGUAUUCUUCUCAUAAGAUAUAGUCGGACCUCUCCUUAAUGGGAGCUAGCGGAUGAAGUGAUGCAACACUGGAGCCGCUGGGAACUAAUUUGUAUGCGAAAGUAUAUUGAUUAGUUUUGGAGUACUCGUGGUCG;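 also: selection with 25 µg/mL kanamycin versus none on LB agar overnight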
# CONDITION_DETAILS: 37 °C
Numbers only.

{"columns": ["CHAIN", "OBSERVABLE", "RECORDED_VALUE"],
 "data": [
  ["ACGAAGCAAUAUUACGACGA", "self-splicing fitness (ln)", -0.181]
]}

Please supply self-splicing fitness (ln) for each of the following items, keeping them in order.
1. CGUCAGCAAUAUUACGAGGC
2. AUCGAGCAAUAUUACGGCGG
3. CCGAAGCAAUAUUACGUCGC
4. GGCGAGCAAUAUUACGGUAA

## Output
[-3.2, -1.36, -3.07, -1.77]

Please supply self-splicing fitness (ln) for each of the following items, keeping them in order.
1. CGUUAGCAAUAUUACGUGCU
2. CGCCAGCAAUAUUACGGCAC
3. ACCCAGCAAUAUUACGAGCU
4. ACGCAGCAAUAUUACGUAUC

## Output
-1.64
-1.04
-2.17
-1.18

Please supply self-splicing fitness (ln) for each of the following items, keeping them in order.
1. ACGCAGCAAUAUUACGGGAA
2. GCUCAGCAAUAUUACGCCGU
3. UUGCAGCAAUAUUACGCAUG
4. AAAGAGCAAUAUUACGUCCC

## Output
[-2, -1.61, -2.99, -1.07]

Please supply self-splicing fitness (ln) for each of the following items, keeping them in order.
1. UGCGAGCAAUAUUACGAUAC
2. GAAAAGCAAUAUUACGAGGU

## Output
1: -1.45; 2: -2.92
